SYSTEM_TESTED: DN-IV quality control recombinant protein (produced by the company) (dengue virus)
ASSAY_PROTOCOL: BLI, antibody on AMC sensor
Consider the following binders and their measured kon readings.
Response body: numeric value in M⁻¹ s⁻¹, unit text excluded.

Sample answers from the record:
BINDER | RECORDED_NUMBER
WT 1-14 (antibody, V domains shown) VH: EVQLQQPGPELVKPGASVKMSCKASGYTVTSSVIHWVRQKPGQGLEWIGYMNAYNDGLKYNDKFIGKAILTSDKSSSTAYMQLSSLTSEDSAVYYCTREGLFYVFDYWGQGTSVTVSS VL: QIVLTQSPAIMSASPGEKVTMTCSGTSSLSYMHWYQQKSGTSPKRWIYDSSKLASPVPVRFSGSGSGTSYSLTISSMEAEDAATYFCQWWRSVLPTFGAGTKLELKR | 4120
Mutation 1-11 (antibody, V domains shown) VH: EVQLQQPGPELVKPGASVKMSCKASGYTFTSYVIHWVRQKPGQGLEWIGYMNPYNDGLKYNEKFIGKAILTSDKSSSTAYMQLSSLTSEDSAVYYCTKEGLFYVFDYWGQGTSVTVSS VL: QIVLTQSPAIMSASPGEKVTMTCSATSSVSYMHWYQQKSGTSPKRWIYDSSKLASGVPVRFSGSGSGTSYSLTISSMEAEDAATYFCQQWRSDLPTFGAGTKLELKR | 414000

Turning to the following binder.
I have this binder here, Mutation 1-32 (antibody, V domains shown) VH: EVQLQQPGPELVKPGASVKMSCKASGYTFTSYVIHWVRQKPGQGLEWIGYMNPYNDGIKYNEKFIGKAILTSDKSSSTAYMQLSSLTSEDSAVYYCTKEGLFYVMDYWGQGTSVTVSS VL: QIVLTQSPAIMSASPGEKVTMTCSATSSVSYMHWYQQKSGTSPKRWIYDTSKLASGVPVRFSGSGSGTSYSLTISSMEAEDAATYFCQQWRSDLPTFGAGTKLELKR , and I need its recorded kon. 350000

Provenance of the data: patent US20210324054A1
